molecular target: Leucyl-cystinyl aminopeptidase (Mus musculus); assay: IRAP activators, dose response, selectivity assay for ERAP1 modulator project, biochemical, Leu-AMC fluorescence, cherry-picked samples (AID 743339); settings: purified IRAP, Leu-AMC cleavage fluorescence, 1 h
The source made the active and inactive calls.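 Rule for the calls: active = activation curve crossing 200% at or below the highest valid dose tested for that sample; inconclusive = flat curve with activation between 30 and 70%, or poor fit; inactive = the rest, including signal falling instead of rising.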
Classes used: active, inactive

{"Molecule": "CC1CN(Cc2cc(=O)oc3cc(O)c(Cl)cc23)CC(C)O1 (configuration not stated)", "Tgt": "Leucyl-cystinyl aminopeptidase (Mus musculus)", "Cat": "active"}
{"Molecule": "CCN(CC)Cc1c(O)ccc2cc(-c3nc4ccccc4n3C)c(=O)oc12", "Tgt": "Leucyl-cystinyl aminopeptidase (Mus musculus)", "Cat": "active"}
{"Molecule": "CCN1[C@@H]2c3ccc(/C=C/c4ccccc4)c(=O)n3C[C@H]1[C@H](CO)[C@H]2C(=O)N1CCOCC1", "Tgt": "Leucyl-cystinyl aminopeptidase (Mus musculus)", "Cat": "active"}
{"Molecule": "Cc1ccc(S(=O)(=O)c2cc3ccc(O)cc3oc2=O)cc1C", "Tgt": "Leucyl-cystinyl aminopeptidase (Mus musculus)", "Cat": "active"}
{"Molecule": "CCN(CC)c1ccc2c(C)c(Cl)c(=O)oc2c1", "Tgt": "Leucyl-cystinyl aminopeptidase (Mus musculus)", "Cat": "active"}
{"Molecule": "O=c1cc(CN2CCN(Cc3ccccc3)CC2)c2ccc(O)cc2o1", "Tgt": "Leucyl-cystinyl aminopeptidase (Mus musculus)", "Cat": "active"}
{"Molecule": "Cc1cc(=O)oc2c(CN3CCCC3)c(O)c(Cl)cc12", "Tgt": "Leucyl-cystinyl aminopeptidase (Mus musculus)", "Cat": "active"}
{"Molecule": "COc1ccc(C2=NN(c3ccc(C(=O)O)cc3)C(c3ccc(OC)c(OC)c3)C2)cc1 (configuration not stated)", "Tgt": "Leucyl-cystinyl aminopeptidase (Mus musculus)", "Cat": "active"}
{"Molecule": "N#Cc1c(N)n(CCNC(=O)c2ccccc2)c2nc3ccccc3nc12", "Tgt": "Leucyl-cystinyl aminopeptidase (Mus musculus)", "Cat": "inactive"}
{"Molecule": "CCc1cc(=O)oc2c(CN3CCN(C)CC3)c(O)ccc12", "Tgt": "Leucyl-cystinyl aminopeptidase (Mus musculus)", "Cat": "active"}
{"Molecule": "CC(=O)Oc1cc2oc(=O)cc(C)c2cc1Cl", "Tgt": "Leucyl-cystinyl aminopeptidase (Mus musculus)", "Cat": "active"}
{"Molecule": "Cc1c(O)ccc2c(CN3CCN(Cc4ccccc4)CC3)cc(=O)oc12", "Tgt": "Leucyl-cystinyl aminopeptidase (Mus musculus)", "Cat": "inactive"}
{"Molecule": "COCCCn1c(C(=O)N2CCOCC2)cc2c(=O)n3ccccc3nc21", "Tgt": "Leucyl-cystinyl aminopeptidase (Mus musculus)", "Cat": "inactive"}
{"Molecule": "O=c1cc(CN2CCOCC2)c2cc(Cl)c(O)cc2o1", "Tgt": "Leucyl-cystinyl aminopeptidase (Mus musculus)", "Cat": "active"}
{"Molecule": "CN1[C@@H]2Cn3c(ccc(/C=C/c4ccccc4)c3=O)[C@H]1[C@@H](C(=O)NC1CCCC1)[C@@H]2CO", "Tgt": "Leucyl-cystinyl aminopeptidase (Mus musculus)", "Cat": "active"}
{"Molecule": "COc1ccc(-c2cc3ccc(O)cc3oc2=O)cc1OC", "Tgt": "Leucyl-cystinyl aminopeptidase (Mus musculus)", "Cat": "active"}
{"Molecule": "Cc1c(CC(=O)N2CCN(C(=O)C3COc4ccccc4O3)CC2)c(=O)oc2cc(O)c(Cl)cc12 (configuration not stated)", "Tgt": "Leucyl-cystinyl aminopeptidase (Mus musculus)", "Cat": "active"}
{"Molecule": "CN(C)Cc1c(O)ccc2cc(-c3nc4ccccc4n3C)c(=O)oc12", "Tgt": "Leucyl-cystinyl aminopeptidase (Mus musculus)", "Cat": "active"}
{"Molecule": "CCc1cc(=O)oc2c(CNCc3c(F)cccc3Cl)c(O)ccc12", "Tgt": "Leucyl-cystinyl aminopeptidase (Mus musculus)", "Cat": "active"}
{"Molecule": "CCCc1cc(=O)oc2c(CN(CC)CC)c(O)c(Cl)cc12", "Tgt": "Leucyl-cystinyl aminopeptidase (Mus musculus)", "Cat": "active"}
{"Molecule": "CCNC(=O)[C@@H]1[C@@H](CO)[C@@H]2Cn3c(ccc(/C=C/c4ccccc4)c3=O)[C@H]1N2C(=O)C1CCCC1", "Tgt": "Leucyl-cystinyl aminopeptidase (Mus musculus)", "Cat": "active"}
{"Molecule": "Cc1cc(=O)oc2c(CN3CCN(CCO)CC3)c(O)ccc12", "Tgt": "Leucyl-cystinyl aminopeptidase (Mus musculus)", "Cat": "active"}
